System: NOMO1
Assay: AUC of viability dose-response curve (% viability x log10 dose units); higher = less sensitive
Conditions: RPMI 5 mM glucose + 10% dialyzed FBS; 48 h

| molecule | AUC of viability dose-response curve |
| --- | --- |
| NC(=O)c1cnccn1 | 457 |
| NC(=O)N/N=C/c1ccc([N+](=O)[O-])o1 | 434 |
| COc1ccc(/C=C\c2cc(OC)c(OC)c(OC)c2)cc1NC(=O)[C@H](N)CO | 206 |
| c1cc(-c2cnn3cc(-c4ccc(OCCN5CCCCC5)cc4)cnc23)ccn1 | 394 |
| O=C(O)c1ccc(O)c2ncc(N3CCOCC3)cc12 | 454 |
| COc1cc2nc(N3CCN(C(=O)C4COc5ccccc5O4)CC3)nc(N)c2cc1OC (stereo unspecified) | 456 |

###

System: SEM cells
Experiment: cell viability relative to DMSO control; higher = less cytotoxic
Settings: RPMI 5 mM glucose + 10% dialyzed FBS; 48 h; 0.000781 µM
assayMetric: cell viability (%)

| molecule | targetUnderTest | assayMetric | unitSpec | recordedValue |
| --- | --- | --- | --- | --- |
| O=C(c1cncc(Br)c1)N1CCC(N2CCCC2)CC1 | SEM cells | cell viability | % | 110 |
| COCCn1c2c([n+](Cc3cnccn3)c1C)C(=O)c1ccccc1C2=O | SEM cells | cell viability | % | 105 |
| CCCCc1ccc2[nH]c(NC(=O)OC)nc2c1 | SEM cells | cell viability | % | 98.8 |
| COc1ccccc1[C@H](c1cccc2ccccc12)[C@@](C)(C#N)C(=O)N1CCC(c2cccc(C(F)(F)F)c2)CC1 | SEM cells | cell viability | % | 83.3 |
| C=CC(=O)Nc1cccc(Sc2nc(Nc3ccc(N4CCN(C)CC4)cc3)ncc2Cl)c1 | SEM cells | cell viability | % | 88.8 |
| Nc1ccc(C(=O)Nc2cccc(-c3nc(N4CCOCC4)c4oc5ncccc5c4n3)c2)cn1 | SEM cells | cell viability | % | 129 |
| C=C(c1ccc(C(=O)O)cc1)c1cc2c(cc1C)C(C)(C)CCC2(C)C | SEM cells | cell viability | % | 95 |
| C[C@]1(O)CC(C1)C2=NC(=C3[N]2C=CN=C3N)C4=CC5=C(C=C4)C=CC(=N5)C6=CC=CC=C6 (stereo unspecified) | SEM cells | cell viability | % | 77.7 |
| CC1(COc2ccc3c(c2)ncn3-c2ccc3cccc(N4CCC(N)CC4)c3n2)COC1 | SEM cells | cell viability | % | 99.8 |
| C=CC(=O)Nc1cc2c(Nc3ccc(F)c(Cl)c3)ncnc2cc1C#CC(C)(C)N1CCN(C)CC1 | SEM cells | cell viability | % | 102 |
| CO[C@H]1/C=C/O[C@@]2(C)Oc3c(C)c(O)c4c(c3C2=O)C2=NC3(CCN(CC(C)C)CC3)NC2=C(NC(=O)/C(C)=C/C=C/[C@H](C)[C@H](O)[C@@H](C)[C@@H](O)[C@@H](C)[C@H](OC(C)=O)[C@@H]1C)C4=O | SEM cells | cell viability | % | 110 |
| CCC(C)CCCCC(=O)N[C@@H](CCN)C(=O)NC(C(=O)N[C@H](CCN)C(=O)N[C@@H]1CCNC(=O)C([C@@H](C)O)NC(=O)[C@@H](CCN)NC(=O)[C@@H](CCN)NC(=O)[C@@H](CC(C)C)NC(=O)[C@H](Cc2ccccc2)NC(=O)[C@H](CCN)NC1=O)[C@@H](C)O (stereo partly specified) | SEM cells | cell viability | % | 87.1 |
| CC/C=C\C[C@H]1C(=O)CC[C@@H]1CC(=O)OC | SEM cells | cell viability | % | 78 |
| CN(C)CCCC1(c2ccc(F)cc2)OCc2cc(C#N)ccc21 (stereo unspecified) | SEM cells | cell viability | % | 109 |
| CC1(C)SCCN([S+](=O)([O-])c2ccc(OCC#CCO)cc2)[C@H]1C(=O)NO | SEM cells | cell viability | % | 105 |
| C[C@H](CCC(=O)O)[C@H]1CC[C@H]2[C@@H]3[C@H](O)C[C@@H]4C[C@H](O)CC[C@]4(C)[C@H]3CC[C@]12C | SEM cells | cell viability | % | 87.5 |

###

Tested on: NOMO1
Experiment: cell viability relative to DMSO control; higher = less cytotoxic
Conditions: RPMI 5 mM glucose + 10% FBS; 48 h; 15.4 µM
Catalogue of cell viability readings, one per entry.

| compound | unitSpec | cell viability |
| --- | --- | --- |
| CCCCCCNC(=O)N1\C=C(F)/C(=O)NC1=O | % | 115 |
| Oc1cc(-c2nc(-c3ccccc3)[nH]c2-c2ccncc2)ccc1Cl | % | 87.1 |
| C[C@H](NC(=O)Cc1cc(F)cc(F)c1)C(=O)N[C@H](C(=O)OC(C)(C)C)c1ccccc1 | % | 81.9 |
| O=C(O)CCCCCC(=O)NN=C1CCCC1 | % | 123 |
| Cc1cc(Nc2cc(N3CCN(C)CC3)nc(/C=C/c3ccccc3)n2)n[nH]1 | % | 4.18 |
| Clc2cccc(Cl)c2\N=C1/NCCN1 | % | 116 |
| O=C(/C=C/c1ccc(/C=C/C(=O)Nc2ccc(C3=NCCN3)cc2)cc1)Nc1ccc(C2=NCCN2)cc1 | % | 125 |
| NC1=NC(=O)N2CC12 (stereo unspecified) | % | 4.92 |
| COc1c(Cl)cc2c([nH]c3cnccc32)c1NC(=O)c1cccnc1C | % | 102 |
| OC[C@H]1O[C@H](C[C@@H]1O)N2/C=C(C(=O)NC2=O)/C(F)(F)F | % | 86.9 |
| CN(C)C/C=C/C(=O)Nc1ccc(C(=O)Nc2cccc(Nc3ncc(Cl)c(-c4c[nH]c5ccccc45)n3)c2)cc1 | % | 3.68 |
| CC(=O)OC[C@@H]1O[C@H]([C@H](OC(C)=O)[C@@H]1OC(C)=O)N2\C=C/C(=O)NC2=O | % | 82.9 |
| Nc1nc(F)nc2c1ncn2[C@@H]1O[C@H](COP(=O)(O)O)[C@@H](O)[C@@H]1O | % | 109 |
| CN1CCc2c(c3ccccc3n2Cc2ccc(C(=O)NO)cc2)C1 | % | 78.7 |
| CN(C)c1nc(Cc2ccc(NC(=O)c3ccc(C(F)(F)F)cc3)cc2)nc(N(C)C)c1CC(=O)O | % | 91.8 |
| COc1ccc(F)c(F)c1C(=O)c1cnc(NC2CCN([S+](C)(=O)[O-])CC2)nc1N | % | 15.1 |
| CCNC(=O)CCC/C=C\C[C@@H]1[C@@H](/C=C/C(O)CCc2ccccc2)[C@@H](O)C[C@@H]1O (stereo partly specified) | % | 102 |
| CCCCCNC(=N)N/N=C/c1c[nH]c2ccc(OC)cc12 | % | 93.4 |
| CNc1nc(-c2ccc3c(N)n[nH]c3c2)cc(N2C[C@@H](C(=O)NC3CCCCC3)CC[C@H]2C)n1 | % | 73.8 |
| NC(=O)c1cccc(-c2cc(Nc3ccc(OC(F)(F)F)cc3)ncn2)c1 | % | 84.1 |
| Nc1n[nH]c2nnc(-c3c(-c4ccccc4)nn4ccccc34)cc12 | % | 26.9 |

###

Tested on: SEM cells
Assay: AUC of viability dose-response curve (% viability x log10 dose units); higher = less sensitive
Details: RPMI 5 mM glucose + 10% FBS; 48 h
assayMetric: AUC of viability dose-response curve

| molecule | assayMetric | recordedValue |
| --- | --- | --- |
| C[C@]12CC[C@H]3[C@@H](CC(=C)\C4=C\C(=O)\C=C/[C@]34C)[C@@H]1CCC2=O | AUC of viability dose-response curve | 438 |
| Cc1c(N)nc([C@H](CC(N)=O)NC[C@@H](N)C(N)=O)nc1C(=O)N[C@H](C(=O)N[C@@H](C)[C@H](O)[C@@H](C)C(=O)N[C@@H](C(=O)NCCc1nc(-c2nc(C(=O)NCCC[S+](C)C)cs2)cs1)[C@@H](C)O)C(O[C@H]1O[C@H](CO)[C@H](O)[C@@H](O)[C@H]1O[C@H]1O[C@H](CO)[C@@H](O)[C@H](OC(N)=O)[C@@H]1O)c1c[nH]cn1 (stereo partly specified) | AUC of viability dose-response curve | 382 |
| O=C(O)c1cc(O)c2c(c1)C(=O)c1cccc(O)c1C2=O | AUC of viability dose-response curve | 460 |
| C[C@H](NC(=O)Cc1cc(F)cc(F)c1)C(=O)N[C@H](C(=O)OC(C)(C)C)c1ccccc1 | AUC of viability dose-response curve | 456 |
| COc1c(Cl)cc2c([nH]c3cnccc32)c1NC(=O)c1cccnc1C | AUC of viability dose-response curve | 405 |
| CN1C(=O)/C(=C(NC2=CC=C(I)C=C2F)\C3=C1\N=C/N(C[C@@H](O)CO)C3=O)F | AUC of viability dose-response curve | 330 |

Origin of values: the supplement of paper PMC11451515
